- target-system: TRIB2 (Homo sapiens, UniProt Q92519)
- Sequence (Q92519 whole entry): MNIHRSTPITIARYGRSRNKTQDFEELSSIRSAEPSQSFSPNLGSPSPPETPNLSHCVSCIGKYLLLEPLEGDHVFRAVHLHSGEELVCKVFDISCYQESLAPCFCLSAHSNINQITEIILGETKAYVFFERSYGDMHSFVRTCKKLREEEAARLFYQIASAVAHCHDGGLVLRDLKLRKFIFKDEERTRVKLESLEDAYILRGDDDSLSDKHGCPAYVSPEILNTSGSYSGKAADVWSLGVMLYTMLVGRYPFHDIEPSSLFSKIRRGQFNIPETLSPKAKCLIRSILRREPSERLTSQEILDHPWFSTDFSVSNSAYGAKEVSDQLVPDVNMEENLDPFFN
- assay-summary: TRIB2 kinase activity assay (Eurofins, 33P-ATP filter binding)
- Format: biochemical
- Design: purchased Eurofins
- applied-conditions: human TRIB2, 15 μM gamma-33P-ATP, 120 minutes at room temperature; read-out: TRIB2 Kimase activity assay IC50
- Description: TRIB2 kinase activity assay was conducted in Eurofins. […] Afterward, the reaction was terminated with 0.5% phosphoric acid.
pIC50: −log10 of the molar value. Counter-ions that a name gives are not always drawn.
I'd be grateful if you could share measured pIC50 for these entries.

compound: O=C(NC1CCN(C(=O)c2ccccc2)CC1)c1n[nH]c2ccc(-c3cccnc3F)cc12 [Compound 12]
observable: pIC50
measured: 7.00 to 8.00

List reported pIC50 for each of these compounds:
1. O=C(NC1CCNC1)c1n[nH]c2ccc(-c3cccnc3F)cc12 (stereo not drawn) [Compound 20]
2. O=C(NC1CCNCC1)c1n[nH]c2ccc(-c3cccnc3F)cc12 [Compound 2]
3. O=Cc1ccc(-c2ccc3[nH]nc(C(=O)Nc4ccncc4)c3c2)o1 [Compound 47]
4. O=C(Nc1ccc2c(c1)CN(C(=O)C(F)(F)F)CC2)c1nn(C2CCCCO2)c2ccc(-c3cccnc3F)cc12 (stereo not drawn) [Compound 53]
5. Cn1cc(-c2ccc3[nH]nc(C(=O)Nc4ccncc4)c3c2)cn1 [Compound 29]
6. O=C(Nc1ccncc1)c1n[nH]c2ccc(-c3cnn(Cc4ccccc4)c3)cc12 [Compound 33]
7. O=C(NC1CCNCC1)c1n[nH]c2ccc(-c3ccnc(F)c3)cc12 [Compound 13]
8. O=C(Nc1ccncc1)c1n[nH]c2ccc(-c3cccnc3F)cc12 [Compound 17]

Output:
7.00 to 8.00
7.00 to 8.00
7.00 to 8.00
8.00 to 9.00
7.00 to 8.00
8.00 to 9.00
7.00 to 8.00
8.00 to 9.00

Could you tell me pIC50 for each of these compounds? They are listed below.
1. CC1(C)Cc2ccc(NC(=O)c3n[nH]c4ccc(-c5cccnc5F)cc34)cc2CN1 [Compound 71]
2. O=C(c1n[nH]c2ccc(-c3cccnc3F)cc12)N1CCc2ccccc2C1 [Compound 21]
3. Cn1ncc2c(NC(=O)c3n[nH]c4ccc(-c5cccnc5F)cc34)ccnc21 [Compound 65]
4. O=C(Nc1ccncc1)c1n[nH]c2ccc(-c3ccc(N4CCNCC4)cc3)cc12 [Compound 46, hydrochloride]
5. O=C(NCc1ccncc1)c1n[nH]c2ccc(-c3cccnc3F)cc12 [Compound 51]
6. N[C@H]1CC[C@@H](NC(=O)c2n[nH]c3ccc(-c4cccnc4F)cc23)CC1 [Compound 18]
7. O=C(Nc1ccc2c(c1)CCNC2)c1n[nH]c2ccc(-c3cccnc3F)cc12 [Compound 64]

Output:
["8.00 to 9.00", "6.00 to 7.00", "7.00 to 8.00", "7.00 to 8.00", "7.00 to 8.00", "6.00 to 7.00", "8.00 to 9.00"]

Below is a list of compounds. For each, state its recorded pIC50.
1. O=C(NC1CCCCC1)c1n[nH]c2ccc(-c3cccnc3F)cc12 [Compound 14]
2. CC(C)(C)OC(=O)N1CCC(NC(=O)c2n[nH]c3ccc(-c4cccnc4F)cc23)CC1 [Compound 1]
3. O=C(NC1CCN(C(=O)c2ccccc2)CC1)c1nn(C(=O)c2ccccc2)c2ccc(-c3cccnc3F)cc12 [Compound 10]
4. O=C(Nc1ccncc1)c1n[nH]c2ccc(-c3cn[nH]c3)cc12 [Compound 26]
5. O=C(NC1CCNCC1)c1n[nH]c2ccc(-c3cccnc3)cc12 [Compound 4]
6. CC1NCCc2ccc(NC(=O)c3n[nH]c4ccc(-c5cccnc5F)cc34)cc21 (stereo not drawn) [Compound 63]

Output:
["6.00 to 7.00", "7.00 to 8.00", "7.00 to 8.00", "7.00 to 8.00", "7.00 to 8.00", "8.00 to 9.00"]

Working through the 2 compounds below one at a time, give pIC50 for each.
1. O=C(NCCN1CCOCC1)c1n[nH]c2ccc(-c3cccnc3F)cc12 [Compound 22]
2. CC1(C)NCCc2ccc(NC(=O)c3n[nH]c4ccc(-c5cccnc5F)cc34)cc21 [Compound 59]

Output:
["6.00 to 7.00", "8.00 to 9.00"]
